system: small intestine of fasting male Wistar rats (glucose absorption); experiment: In vitro method for the inhibition of glucose absorption (small intestine rings, D-glucose-14C); set-up: species or system rat (male Wistar); conditions: Rattus norvegicus, 2 min; 10 mg/ml; 2 minutes at 37° C., pH 7.4, D-glucose-14C 10 mg/ml
QUANTITY_MEASURED: inhibition at 10000 µg/mL

Examples with their reported inhibition at 10000 µg/mL follow.
C[C@H]1O[C@H](O[C@H]2[C@H](O)[C@@H](O)[C@@H](O[C@H]3[C@H](O)[C@@H](O)[C@H](Oc4cccc(C(=O)O)c4)O[C@@H]3CO)O[C@@H]2CO)[C@H](O)[C@@H](O)[C@@H]1N[C@H]1C=C(CO)[C@@H](O)[C@H](O)[C@H]1O : > 50%
C[C@H]1O[C@H](O[C@H]2[C@H](O)[C@@H](O)[C@@H](O[C@H]3[C@H](O)[C@@H](O)[C@H](Oc4ccc(C(C)(C)C)cc4)O[C@@H]3CO)O[C@@H]2CO)[C@H](O)[C@@H](O)[C@@H]1N[C@H]1C=C(CO)[C@@H](O)[C@H](O)[C@H]1O : > 50%

inhibition at 10000 µg/mL of CCCCCCCCCCCCCCCCO[C@@H]1O[C@H](CO)[C@@H](O[C@H]2O[C@H](CO)[C@@H](O[C@H]3O[C@H](C)[C@@H](N[C@H]4C=C(CO)[C@@H](O)[C@H](O)[C@H]4O)[C@H](O)[C@H]3O)[C@H](O)[C@H]2O)[C@H](O)[C@H]1O , assay on small intestine of fasting male Wistar rats (glucose absorption), is > 50%
